# assay system: human TRPV4 (Homo sapiens (Human))
# Sequence (Q9HBA0 whole entry): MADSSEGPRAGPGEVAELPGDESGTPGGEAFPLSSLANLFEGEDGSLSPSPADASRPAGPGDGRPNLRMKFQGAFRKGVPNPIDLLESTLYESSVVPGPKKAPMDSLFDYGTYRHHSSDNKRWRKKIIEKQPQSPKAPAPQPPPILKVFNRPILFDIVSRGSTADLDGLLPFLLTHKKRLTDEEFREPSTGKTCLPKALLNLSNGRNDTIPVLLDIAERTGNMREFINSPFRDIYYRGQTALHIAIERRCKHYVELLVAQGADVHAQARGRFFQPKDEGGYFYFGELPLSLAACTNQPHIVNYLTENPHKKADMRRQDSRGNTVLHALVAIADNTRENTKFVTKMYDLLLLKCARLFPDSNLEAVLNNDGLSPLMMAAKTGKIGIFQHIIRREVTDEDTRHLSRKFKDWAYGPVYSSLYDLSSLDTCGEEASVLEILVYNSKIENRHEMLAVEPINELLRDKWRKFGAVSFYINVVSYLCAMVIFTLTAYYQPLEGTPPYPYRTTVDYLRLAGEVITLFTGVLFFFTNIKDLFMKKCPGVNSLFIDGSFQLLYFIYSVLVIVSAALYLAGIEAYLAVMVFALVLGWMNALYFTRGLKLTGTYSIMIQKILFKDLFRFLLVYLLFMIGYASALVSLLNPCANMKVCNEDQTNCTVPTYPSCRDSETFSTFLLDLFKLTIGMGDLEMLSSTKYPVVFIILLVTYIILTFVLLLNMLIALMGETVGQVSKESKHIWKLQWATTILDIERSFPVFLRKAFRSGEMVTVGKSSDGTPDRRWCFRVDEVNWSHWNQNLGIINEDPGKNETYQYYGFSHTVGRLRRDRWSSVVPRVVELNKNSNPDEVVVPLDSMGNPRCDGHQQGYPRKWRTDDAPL
# assay notes: FLIPR assay for hTRPV4 expressed in BHK cells
# Assay type: cell-based
# protocol conditions: inhibition of Agonist Compound (EC80)-induced calcium signal; BHK/AC9 cells expressing human TRPV4; read-out: IC50
pIC50: −log10 of the molar value.
reported metric: pIC50

>>> result("N#Cc1cc(C(F)(F)F)ccc1S(=O)(=O)N1C[C@H](S(=O)(=O)c2ccc(Cl)cc2)[C@](O)(CO)C1 [Example 117]")
"8.00 to 10.00"
>>> result("Cc1cc(S(=O)(=O)[C@H]2CN(S(=O)(=O)c3ccc(C(F)(F)F)cc3Cl)C[C@@]2(O)CO)ccc1C#N [Example 100]")
"7.00 to 8.00"
>>> result("N#Cc1ccc(S(=O)(=O)N2C[C@H](S(=O)(=O)c3ccc(Cl)cc3)[C@](O)(CO)C2)c(F)c1 [Example 21]")
"7.00 to 8.00"
>>> result("N#Cc1ccc(S(=O)(=O)N2C[C@H](S(=O)(=O)c3ccc(Cl)cn3)[C@@](O)(CN)C2)c(Cl)c1 [Example 125]")
"8.00 to 10.00"
>>> result("O=S(=O)(c1ccc(F)cc1)[C@H]1CN(S(=O)(=O)c2ccc(Cl)cc2Cl)C[C@@]1(O)CO [Example 102]")
"7.00 to 8.00"
>>> result("N#Cc1ccc(S(=O)(=O)N2C[C@H](S(=O)(=O)c3ccc(C#N)c(F)c3)[C@@](O)(CO)C2)c(Cl)c1 [Example 3]")
"8.00 to 10.00"
>>> result("N#Cc1ccc(S(=O)(=O)N2C[C@H](S(=O)(=O)c3ccc(Br)cn3)[C@@](O)(CO)C2)c(Cl)c1 [Example 81]")
"7.00 to 8.00"
>>> result("COC(=O)c1ccc(S(=O)(=O)[C@H]2CN(S(=O)(=O)c3ccc(Cl)cc3C(F)F)C[C@@]2(O)CO)cc1 [Example 64]")
"7.00 to 8.00"
>>> result("N#Cc1ccc(S(=O)(=O)N2C[C@H](S(=O)(=O)c3ccc(Cl)cc3)[C@@](O)(CO)C2)c(Cl)c1 [Example 23]")
"7.00 to 8.00"
>>> result("O=S(=O)(c1ccc(Cl)cc1)[C@H]1CN(S(=O)(=O)c2ccc(C(F)F)cc2Cl)C[C@@]1(O)CO [Example 37]")
"7.00 to 8.00"
>>> result("O=S(=O)(c1ccc(Cl)cc1)[C@H]1CN(S(=O)(=O)c2ccc(C(F)(F)F)cc2Cl)C[C@@]1(O)CO [Example 97]")
"7.00 to 8.00"
>>> result("N#Cc1ccc(S(=O)(=O)N2C[C@H](S(=O)(=O)c3ccc(Cl)cn3)[C@](O)(CN)C2)c(Cl)c1 [Example 121]")
"8.00 to 10.00"
>>> result("Cc1cc(C(F)(F)F)ccc1S(=O)(=O)N1C[C@H](S(=O)(=O)c2ccc(C#N)c(F)c2)[C@](O)(CO)C1 [Example 71]")
"7.00 to 8.00"
>>> result("O=S(=O)(c1ccc(Cl)c(Cl)c1)[C@H]1CN(S(=O)(=O)c2ccc(Cl)cc2Cl)C[C@]1(O)CO [Example 115]")
"7.00 to 8.00"
>>> result("CC(C)c1ccc(S(=O)(=O)[C@H]2CN(S(=O)(=O)c3ccc(C#N)cc3Cl)C[C@@]2(O)CO)cc1 [Example 105]")
"7.00 to 8.00"
>>> result("O=S(=O)(c1ccc(Cl)cc1)[C@H]1CN(S(=O)(=O)c2ccc(Cl)cc2Cl)C[C@@]1(O)CO [Example 18]")
"7.00 to 8.00"
>>> result("N#Cc1ccc(S(=O)(=O)[C@H]2CN(S(=O)(=O)c3ccc(C#N)cc3Cl)C[C@@]2(O)CO)cc1 [Example 45]")
"8.00 to 10.00"
>>> result("N#Cc1ccc(S(=O)(=O)[C@H]2CN(S(=O)(=O)c3ccc(Br)cc3Cl)C[C@@]2(O)CO)cc1 [Example 34]")
"8.00 to 10.00"
>>> result("N#Cc1cc(S(=O)(=O)[C@H]2CN(S(=O)(=O)c3ccc(Cl)cc3Cl)C[C@@]2(O)CO)ccc1Cl [Example 103]")
"7.00 to 8.00"
>>> result("COc1cc(Br)ccc1S(=O)(=O)N1C[C@H](S(=O)(=O)c2ccc(C#N)cc2)[C@](O)(CO)C1 [Example 52]")
"7.00 to 8.00"
>>> result("N#Cc1ccc(S(=O)(=O)[C@H]2CN(S(=O)(=O)c3ccc(F)cc3C(F)(F)F)C[C@@]2(O)CO)cc1 [Example 29]")
"8.00 to 10.00"
>>> result("COc1ccc(S(=O)(=O)N2C[C@H](S(=O)(=O)c3ccc(C#N)cc3)[C@](O)(CO)C2)c(Br)c1 [Example 60]")
"7.00 to 8.00"
>>> result("COc1ccc(S(=O)(=O)N2C[C@H](S(=O)(=O)c3ccc(C#N)cc3)[C@](O)(CO)C2)c(C(F)(F)F)c1 [Example 31]")
"7.00 to 8.00"
>>> result("N#CCc1cc(Cl)ccc1S(=O)(=O)N1C[C@H](S(=O)(=O)c2ccc(Cl)cc2)[C@](O)(CO)C1 [Example 66]")
"7.00 to 8.00"
>>> result("N#Cc1ccc(S(=O)(=O)[C@H]2CN(S(=O)(=O)c3cc(F)c(Cl)cc3Cl)C[C@]2(O)CO)cc1F [Example 9]")
"7.00 to 8.00"
>>> result("N#Cc1ccc(S(=O)(=O)[C@H]2CN(S(=O)(=O)c3ccc(C(F)(F)F)cc3Cl)C[C@]2(O)CO)cc1 [Example 90]")
"7.00 to 8.00"
>>> result("N#Cc1ccc(S(=O)(=O)[C@H]2CN(S(=O)(=O)c3ccc(Cl)cc3Br)C[C@@]2(O)CO)cc1 [Example 59]")
"8.00 to 10.00"
>>> result("N#Cc1ccc(S(=O)(=O)N2C[C@H](S(=O)(=O)c3ccc(Br)cc3)[C@](O)(CO)C2)c(Cl)c1 [Example 74]")
"8.00 to 10.00"
